Origin of values: patent US20240051956A1

Listing: IC50 of selected compounds
System: NCI-H358
Experiment: Cell proliferation assay, 3D, CellTiter-Glo 3D
Assay type: cell-based, human
Conditions: Homo sapiens, 72 h; NCI-H358 (KRAS G12C), 3D ultra-low attachment, 3 days; read-out: anit-prolif. H358 IC50

compound: Cc1nc(N[C@H](C)c2cccc(C(F)F)c2F)c2cn(N3CCOCC3)c(=O)c(-c3ccccc3)c2n1
IC50: 100 to 500 nM
//
compound: Cc1nc(N[C@H](C)c2cccc(C(F)F)c2F)c2cn(N(C)C)c(=O)cc2n1
IC50: 100 to 500 nM
//
compound: Cc1nc(N[C@H](C)c2cccc(C(F)F)c2F)c2cn(N3CCOCC3)c(=O)c(C3CC3)c2n1
IC50: 100 to 500 nM

// query Which value of IC50 has been reported for `Cc1nc(N[C@H](C)c2cccc(C(F)F)c2F)c2cn(N3CCOCC3)c(=O)c(-c3ccc(P(C)(C)=O)nc3)c2n1` in the records?
// result 100 to 500 nM

// query Which value of IC50 has been reported for Cc1nc(NC(C)c2cccc(C(F)F)c2)c2cn(N3CCOCC3)c(=O)cc2n1 (stereo not shown) in the records?
// result 100 to 500 nM

// query Which value of IC50 has been reported for `Cc1nc(N[C@H](C)c2cccc(C(F)F)c2F)c2cn(N3CCOCC3)c(=O)c(-c3ccc[nH]c3=O)c2n1` in the records?
// result > 1000 nM

// query Which value of IC50 has been reported for `Cc1ccc(-c2c(=O)n(N3CCOCC3)cc3c(N[C@H](C)c4cccc(C(F)F)c4F)nc(C)nc23)cn1` in the records?
// result ≤ 100 nM

---

Tested on: NCI-H358
Test: Cell proliferation assay, 3D, CellTiter-Glo 3D
Format: cell-based, human
Details: Homo sapiens, 72 h; NCI-H358 (KRAS G12C), 3D ultra-low attachment, 3 days; read-out: anit-prolif. H358 IC50
pIC50: −log10 of the molar value.
assay endpoint: pIC50

Record excerpt, results attached:
compound: Cc1nc(N[C@H](C)c2cccc(C(F)F)c2F)c2cn(N3CCN(C(C)C)CC3)c(=O)cc2n1 [Example 12]
pIC50: 6.30 to 7.00
--
compound: Cc1nc(N[C@H](C)c2cccc(C(F)(F)CO)c2)c2cn(N3CCOCC3)c(=O)cc2n1 [Example 18]
pIC50: 6.00 to 6.30
--
compound: Cc1nc(N[C@H](C)c2cccc(C(F)F)c2F)c2cn(N3CCOCC3)c(=O)c(-c3cnc(C#N)nc3)c2n1 [Example 66]
pIC50: ≥ 7.00
--
compound: Cc1nc(N[C@H](C)c2cccc(C(F)(F)F)c2C)c2cn(N3CCOCC3)c(=O)cc2n1 [Example 17]
pIC50: ≥ 7.00
--
compound: Cc1nc(N[C@H](C)c2cccc(C(F)F)c2F)c2cn(N3CCOCC3)c(=O)c(-c3ccc(=O)[nH]c3)c2n1 [Example 49]
pIC50: 6.00 to 6.30

Next compound, please.
// query Report pIC50 for Cc1nc(N[C@H](C)c2cccc(C(F)F)c2F)c2cn(N3CCOCC3)c(=O)c(Br)c2n1 [Example 40] tested on NCI-H358.
// result ≥ 7.00

---

System: NCI-H358
Assay: Cell proliferation assay, 3D, CellTiter-Glo 3D
Format: cell-based, human
Details: Homo sapiens, 72 h; NCI-H358 (KRAS G12C), 3D ultra-low attachment, 3 days; read-out: anit-prolif. H358 IC50
pIC50: −log10 of the molar value.
Listing: pIC50 of selected molecules

Record excerpt, results attached:
molecule: Cc1nc(N[C@H](C)c2cccc(C(F)F)c2F)c2cn(N3CCOCC3)c(=O)c(-c3ccncc3)c2n1 [Example 46]
recorded result: ≥ 7.00
--
molecule: Cc1nc(N[C@H](C)c2cccc(C(F)F)c2F)c2cn(N3CCOCC3)c(=O)c(-c3ccc(S(C)(=O)=O)nc3)c2n1 [Example 61]
recorded result: ≥ 7.00
--
molecule: Cc1nc(N[C@H](C)c2cccc(C(F)F)c2F)c2cn(N3CCOCC3)c(=O)c(C)c2n1 [Example 44]
recorded result: ≥ 7.00

Next molecule, please.
// query Which value of pIC50 has been reported for Cc1nc(N[C@H](C)c2cccc(C(F)F)c2F)c2cn(N3CC4CC3CO4)c(=O)cc2n1 (stereo partly shown) [Example 8] in the records?
// result 6.30 to 7.00

---

Tested on: NCI-H358
Assay: Cell proliferation assay, 3D, CellTiter-Glo 3D
Type: cell-based, human
Conditions: Homo sapiens, 72 h; NCI-H358 (KRAS G12C), 3D ultra-low attachment, 3 days; read-out: anit-prolif. H358 IC50
pIC50: −log10 of the molar value.
assay endpoint: pIC50

Record excerpt, results attached:
molecule: Cc1nc(N[C@H](C)c2cccc(C(F)F)c2F)c2cn(N3CCOCC3)c(=O)cc2n1 [Example 1]
recorded result: ≥ 7.00
//
molecule: Cc1nc(N[C@H](C)c2cccc(C(F)F)c2F)c2cn(N3CCC(F)(F)CC3)c(=O)cc2n1 [Example 3]
recorded result: 6.30 to 7.00
//
molecule: Cc1nc(N[C@H](C)c2cccc(C(F)(F)F)c2C)c2cn(N3CCOCC3)c(=O)c(F)c2n1 [Example 30]
recorded result: ≥ 7.00

Next molecule, please.
// query Report pIC50 for Cc1nc(N[C@H](C)c2cccc(C(F)F)c2F)c2cn(N3CCOC3=O)c(=O)cc2n1 [Example 39] tested on NCI-H358.
// result 6.30 to 7.00

---

Molecular target: SOS1 and KRAS G12D (Homo sapiens (Human), UniProt Q07889)
Sequence (Q07889 564-1049, stated change not applied): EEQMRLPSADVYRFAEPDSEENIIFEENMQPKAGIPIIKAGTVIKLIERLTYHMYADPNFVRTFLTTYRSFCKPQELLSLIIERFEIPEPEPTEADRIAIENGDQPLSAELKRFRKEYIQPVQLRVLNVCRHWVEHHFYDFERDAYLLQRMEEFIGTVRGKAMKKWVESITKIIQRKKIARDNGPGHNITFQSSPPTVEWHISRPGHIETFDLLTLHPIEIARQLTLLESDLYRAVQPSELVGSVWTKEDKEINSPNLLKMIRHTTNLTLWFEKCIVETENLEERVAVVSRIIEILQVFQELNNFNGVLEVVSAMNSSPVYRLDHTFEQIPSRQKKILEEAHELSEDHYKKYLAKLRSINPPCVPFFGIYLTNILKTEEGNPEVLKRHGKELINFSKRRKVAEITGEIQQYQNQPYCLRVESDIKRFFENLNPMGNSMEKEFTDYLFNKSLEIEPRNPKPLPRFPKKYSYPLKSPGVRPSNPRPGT
Experiment: KRAS::SOS1 AlphaScreen Binding Assay
Conditions: SOS1 (564-1049), KRAS G12D (1-169), GDP
pIC50: −log10 of the molar value.
assay endpoint: pIC50

compound: Cc1nc(NCc2cccc(C(F)(F)F)c2)c2cn(N3CCOCC3)c(=O)cc2n1 [Example 26]
assay endpoint: pIC50
recorded result: 6.82 to 7.82
--
compound: COC1CCN(n2cc3c(N[C@H](C)c4cccc(C(F)F)c4F)nc(C)nc3cc2=O)CC1 [Example 7]
assay endpoint: pIC50
recorded result: ≥ 7.82
--
compound: Cc1nc(N[C@H](C)c2cccc(C(F)F)c2F)c2cn(N3CCOCC3)c(=O)c(F)c2n1 [Example 29]
assay endpoint: pIC50
recorded result: ≥ 7.82
--
compound: Cc1nc(N[C@H](C)c2cccc(C(F)F)c2F)c2cn(N(C)C)c(=O)cc2n1 [Example 34]
assay endpoint: pIC50
recorded result: ≥ 7.82
--
compound: COC(=O)c1ccc(-c2c(=O)n(N3CCOCC3)cc3c(N[C@H](C)c4cccc(C(F)F)c4F)nc(C)nc23)cn1 [Example 79]
assay endpoint: pIC50
recorded result: ≥ 7.82
--
compound: Cc1nc(N[C@H](C)c2cccc(C(F)F)c2F)c2cn(N3CCS(=O)(=O)CC3)c(=O)cc2n1 [Example 36]
assay endpoint: pIC50
recorded result: ≥ 7.82
--
compound: Cc1nc(N[C@H](C)c2cccc(C(F)F)c2F)c2cn(N3CCN(C(C)C)CC3)c(=O)cc2n1 [Example 12]
assay endpoint: pIC50
recorded result: ≥ 7.82
--
compound: Cc1nc(N[C@H](C)c2cccc(C(F)F)c2F)c2cn(N3CCOCC3)c(=O)c(-c3ccc(C#N)nc3)c2n1 [Example 75]
assay endpoint: pIC50
recorded result: ≥ 7.82
--
compound: Cc1nc(N[C@H](C)c2cccc(C(F)F)c2F)c2cn(N3CCOCC3)c(=O)c(-c3ccc(C#N)c(F)c3)c2n1 [Example 62]
assay endpoint: pIC50
recorded result: 6.82 to 7.82
--
compound: Cc1nc(N[C@H](C)c2cccc(C(F)F)c2F)c2cn(N3CCOCC3)c(=O)c(-c3cnc4nccn4c3)c2n1 [Example 84]
assay endpoint: pIC50
recorded result: ≥ 7.82

// query Which value of pIC50 has been reported for Cc1nc(N[C@H](C)c2cccc(C(F)(F)F)c2C)c2cn(N3CCOCC3)c(=O)c(F)c2n1 [Example 30] in the records?
// result ≥ 7.82

// query Which value of pIC50 has been reported for Cc1nc(N[C@H](C)c2cccc(C(F)(F)CO)c2)c2cn(N3CCOCC3)c(=O)cc2n1 [Example 18] in the records?
// result ≥ 7.82

// query Which value of pIC50 has been reported for Cc1nc(N[C@H](C)c2cccc(C(F)(F)F)c2)c2cn(N3CCOCC3)c(=O)c(F)c2n1 [Example 33] in the records?
// result ≥ 7.82

// query Which value of pIC50 has been reported for Cc1nc(N[C@H](C)c2cccc(C(F)F)c2F)c2cn(N3CCCC3=O)c(=O)cc2n1 [Example 38] in the records?
// result ≥ 7.82

// query Which value of pIC50 has been reported for Cc1nc(NC(C)c2cccc(C(F)F)c2)c2cn(N3CCOCC3)c(=O)cc2n1 (centres unmarked) [Example 25] in the records?
// result 6.82 to 7.82

// query Which value of pIC50 has been reported for Cc1nc(N[C@H](C)c2cccc(C(F)F)c2F)c2cn(N3CCOCC3)c(=O)c(-c3ccc(C#N)cc3)c2n1 [Example 57] in the records?
// result ≥ 7.82

// query Which value of pIC50 has been reported for Cc1nc(N[C@H](C)c2cccc(C(F)F)c2C)c2cn(N3CCOCC3)c(=O)cc2n1 [Example 21] in the records?
// result ≥ 7.82

// query Which value of pIC50 has been reported for Cc1nc(N[C@H](C)c2cccc(C(F)(F)CO)c2)c2cn(N3CCOCC3)c(=O)c(-c3ccc(C#N)nc3)c2n1 [Example 82] in the records?
// result ≥ 7.82

// query Which value of pIC50 has been reported for Cc1nc(N[C@H](C)c2cccc(C(F)F)c2F)c2cn(N3CCOCC3)c(=O)c(C#N)c2n1 [Example 41] in the records?
// result 6.82 to 7.82

// query Which value of pIC50 has been reported for Cc1nc(N[C@H](C)c2cccc(C(F)F)c2F)c2cn(N3CCOCC3)c(=O)c(-c3cc(F)cc(C#N)c3)c2n1 [Example 64] in the records?
// result 6.82 to 7.82

// query Which value of pIC50 has been reported for Cc1nc(N[C@H](C)c2cccc(C(F)F)c2F)c2cn(N3CCN(C(=O)CO)CC3)c(=O)cc2n1 [Example 13] in the records?
// result ≥ 7.82

// query Which value of pIC50 has been reported for Cc1nc(N[C@H](C)c2cccc(C(F)(F)F)c2F)c2cn(N3CCOCC3)c(=O)cc2n1 [Example 19] in the records?
// result ≥ 7.82

// query Which value of pIC50 has been reported for Cc1nc(N[C@H](C)c2cccc(C(F)F)c2F)c2cn(N3CC4(COC4)C3)c(=O)cc2n1 [Example 9] in the records?
// result ≥ 7.82

// query Which value of pIC50 has been reported for Cc1nc(N[C@H](C)c2cccc(C(F)F)c2F)c2cn(N3CC4CC3CO4)c(=O)cc2n1 (some centres unmarked) [Example 8] in the records?
// result ≥ 7.82

// query Which value of pIC50 has been reported for Cc1nc(N[C@H](C)c2cccc(C(F)F)c2F)c2cn(N3CCOCC3)c(=O)c(-c3ccc(F)c(C#N)c3)c2n1 [Example 63] in the records?
// result 6.82 to 7.82

// query Which value of pIC50 has been reported for Cc1nc(N[C@H](C)c2cccc(C(F)F)c2F)c2cn(N3CCOCC3)c(=O)c(-c3cnc(C#N)nc3)c2n1 [Example 66] in the records?
// result ≥ 7.82

// query Which value of pIC50 has been reported for Cc1nc(N[C@H](C)c2cccc(C(F)F)c2F)c2cn(N3CCOCC3)c(=O)c(C3=CCOC3)c2n1 [Example 54] in the records?
// result ≥ 7.82
